# measured.target: hRARβ (Homo sapiens)
# Construct: Eurofins-CEREP
# experiment.description: Nuclear hormone receptor assay (Eurofins-CEREP)
# measurement.setup: read-out: Relative IC50
measurement.label: IC50

(Q) Using the record for `Cc1cn(CCN2CCN(c3ccccc3-c3cc(C#N)cc(C(=O)NCCCN4CCCC4)c3)CC2)c2ccccc12` , report its IC50.
(A) > 10 µM

---

# measured.target: hDDR1 (Homo sapiens, UniProt Q08345)
# Sequence (Q08345 19-913): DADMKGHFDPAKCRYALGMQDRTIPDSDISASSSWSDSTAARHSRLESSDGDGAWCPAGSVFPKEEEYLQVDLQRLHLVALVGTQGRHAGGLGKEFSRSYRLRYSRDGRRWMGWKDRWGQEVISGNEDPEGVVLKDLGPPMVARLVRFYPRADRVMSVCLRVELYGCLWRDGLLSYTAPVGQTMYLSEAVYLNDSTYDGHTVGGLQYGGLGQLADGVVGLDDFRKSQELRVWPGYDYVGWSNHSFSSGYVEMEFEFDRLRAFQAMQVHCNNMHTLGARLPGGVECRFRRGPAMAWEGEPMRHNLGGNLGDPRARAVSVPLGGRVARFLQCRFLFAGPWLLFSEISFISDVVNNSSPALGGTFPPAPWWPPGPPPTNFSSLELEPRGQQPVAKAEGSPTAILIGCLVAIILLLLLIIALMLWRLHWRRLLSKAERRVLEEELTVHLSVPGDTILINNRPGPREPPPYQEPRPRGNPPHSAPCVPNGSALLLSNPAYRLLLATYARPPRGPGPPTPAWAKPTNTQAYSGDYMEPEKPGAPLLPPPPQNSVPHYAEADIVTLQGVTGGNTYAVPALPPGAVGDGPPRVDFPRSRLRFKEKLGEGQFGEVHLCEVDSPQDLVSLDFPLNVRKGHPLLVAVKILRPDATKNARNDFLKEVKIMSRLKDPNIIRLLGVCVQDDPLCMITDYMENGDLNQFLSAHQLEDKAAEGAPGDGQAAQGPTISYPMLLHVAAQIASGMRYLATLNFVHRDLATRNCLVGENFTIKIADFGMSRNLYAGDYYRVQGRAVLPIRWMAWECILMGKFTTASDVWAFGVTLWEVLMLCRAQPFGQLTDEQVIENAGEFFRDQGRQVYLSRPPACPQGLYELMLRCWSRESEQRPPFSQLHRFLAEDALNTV
measurement.label: IC50

(Q) Using the record for Cc1cn(CCN2CCN(c3ccccc3-c3cc(C#N)cc(C(=O)NCCCN4CCCC4)c3)CC2)c2ccccc12 [LLY-507] , report its IC50.
(A) > 20 µM

---

# Tested on: ESCC, HCC, and breast cancer cell lines
# experiment.description: Proliferation assay (CellTiter-Glo)
# Type: cell-based
# measurement.setup: Homo sapiens, 168 h; 7-day treatment; range over cell lines of all three panels; read-out: IC50, proliferation, longer term assay
pIC50: −log10 of the molar value.
measurement.label: pIC50

(Q) # get_value(readout= pIC50, system= ESCC, HCC, and breast cancer cell lines) for `Cc1cn(CCN2CCN(c3ccccc3-c3cc(C#N)cc(C(=O)NCCCN4CCCC4)c3)CC2)c2ccccc12`
(A) 5.49 to 6.52

---

Target sequence: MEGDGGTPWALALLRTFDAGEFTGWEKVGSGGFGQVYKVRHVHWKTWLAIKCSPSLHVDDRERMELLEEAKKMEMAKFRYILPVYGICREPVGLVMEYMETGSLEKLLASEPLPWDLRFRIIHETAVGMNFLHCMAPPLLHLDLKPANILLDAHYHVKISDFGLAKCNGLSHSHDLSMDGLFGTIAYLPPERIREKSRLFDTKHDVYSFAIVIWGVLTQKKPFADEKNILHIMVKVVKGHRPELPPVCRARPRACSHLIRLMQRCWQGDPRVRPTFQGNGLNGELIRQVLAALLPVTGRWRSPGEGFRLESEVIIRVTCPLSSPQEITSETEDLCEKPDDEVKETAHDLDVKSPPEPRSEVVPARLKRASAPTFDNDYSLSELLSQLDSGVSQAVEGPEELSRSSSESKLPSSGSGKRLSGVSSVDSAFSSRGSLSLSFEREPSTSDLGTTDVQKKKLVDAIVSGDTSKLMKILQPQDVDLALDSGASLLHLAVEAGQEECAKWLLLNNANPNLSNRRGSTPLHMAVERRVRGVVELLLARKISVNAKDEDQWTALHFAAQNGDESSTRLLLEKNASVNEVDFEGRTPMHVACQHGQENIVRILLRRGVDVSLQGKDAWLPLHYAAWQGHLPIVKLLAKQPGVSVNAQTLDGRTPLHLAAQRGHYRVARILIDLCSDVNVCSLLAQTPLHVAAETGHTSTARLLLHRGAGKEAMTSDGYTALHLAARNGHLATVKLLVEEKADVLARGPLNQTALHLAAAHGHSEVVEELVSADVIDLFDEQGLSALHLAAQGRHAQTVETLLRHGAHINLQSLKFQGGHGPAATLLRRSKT
measurement.label: IC50

(Q) Using the record for Cc1cn(CCN2CCN(c3ccccc3-c3cc(C#N)cc(C(=O)NCCCN4CCCC4)c3)CC2)c2ccccc12 [LLY-507] , report its IC50.
(A) > 20 µM

---

# measured.target: hDAPK3 (Homo sapiens)
# Sequence (O43293 whole entry): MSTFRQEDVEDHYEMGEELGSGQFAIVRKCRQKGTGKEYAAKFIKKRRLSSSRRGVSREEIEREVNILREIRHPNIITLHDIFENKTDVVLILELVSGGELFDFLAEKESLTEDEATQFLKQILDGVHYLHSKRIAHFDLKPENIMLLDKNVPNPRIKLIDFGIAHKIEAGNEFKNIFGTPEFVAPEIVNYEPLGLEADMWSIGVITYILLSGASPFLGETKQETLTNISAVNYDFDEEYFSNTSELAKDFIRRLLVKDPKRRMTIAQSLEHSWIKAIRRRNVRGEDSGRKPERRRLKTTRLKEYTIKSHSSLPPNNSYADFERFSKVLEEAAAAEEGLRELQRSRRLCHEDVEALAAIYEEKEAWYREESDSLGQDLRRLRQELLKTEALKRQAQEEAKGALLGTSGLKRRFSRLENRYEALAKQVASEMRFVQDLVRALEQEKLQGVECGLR
measurement.label: IC50

(Q) # get_value(readout= IC50, system= hDAPK3 (Homo sapiens)) for Cc1cn(CCN2CCN(c3ccccc3-c3cc(C#N)cc(C(=O)NCCCN4CCCC4)c3)CC2)c2ccccc12 [LLY-507]
(A) > 20 µM

---

measurement.label: IC50

(Q) # get_value(readout= IC50, system= hRPS6KA4(Kin.Dom.2-C-term) (Homo sapiens, UniProt O75676)) for Cc1cn(CCN2CCN(c3ccccc3-c3cc(C#N)cc(C(=O)NCCCN4CCCC4)c3)CC2)c2ccccc12 [LLY-507]
(A) > 20 µM

---

# measured.target: hCSNK2A2 (Homo sapiens, UniProt P19784)
# Sequence (P19784 whole entry): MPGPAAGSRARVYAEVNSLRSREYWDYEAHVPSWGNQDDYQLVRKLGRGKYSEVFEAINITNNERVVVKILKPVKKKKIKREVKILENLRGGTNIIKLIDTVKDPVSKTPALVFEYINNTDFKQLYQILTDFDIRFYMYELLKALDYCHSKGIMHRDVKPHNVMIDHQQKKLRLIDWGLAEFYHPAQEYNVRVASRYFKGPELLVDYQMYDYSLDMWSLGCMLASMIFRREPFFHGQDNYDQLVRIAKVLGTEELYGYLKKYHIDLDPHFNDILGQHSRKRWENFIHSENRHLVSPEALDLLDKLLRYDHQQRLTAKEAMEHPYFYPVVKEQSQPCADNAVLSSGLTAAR
measurement.label: IC50

(Q) Using the record for Cc1cn(CCN2CCN(c3ccccc3-c3cc(C#N)cc(C(=O)NCCCN4CCCC4)c3)CC2)c2ccccc12 [LLY-507] , report its IC50.
(A) > 20 µM

---

# measured.target: UniProt:Q9NRM7
measurement.label: IC50

(Q) # get_value(readout= IC50, system= UniProt:Q9NRM7) for `Cc1cn(CCN2CCN(c3ccccc3-c3cc(C#N)cc(C(=O)NCCCN4CCCC4)c3)CC2)c2ccccc12`
(A) > 20 µM

---

# measured.target: hERBB3 (Homo sapiens)
# Sequence (P21860 20-1342): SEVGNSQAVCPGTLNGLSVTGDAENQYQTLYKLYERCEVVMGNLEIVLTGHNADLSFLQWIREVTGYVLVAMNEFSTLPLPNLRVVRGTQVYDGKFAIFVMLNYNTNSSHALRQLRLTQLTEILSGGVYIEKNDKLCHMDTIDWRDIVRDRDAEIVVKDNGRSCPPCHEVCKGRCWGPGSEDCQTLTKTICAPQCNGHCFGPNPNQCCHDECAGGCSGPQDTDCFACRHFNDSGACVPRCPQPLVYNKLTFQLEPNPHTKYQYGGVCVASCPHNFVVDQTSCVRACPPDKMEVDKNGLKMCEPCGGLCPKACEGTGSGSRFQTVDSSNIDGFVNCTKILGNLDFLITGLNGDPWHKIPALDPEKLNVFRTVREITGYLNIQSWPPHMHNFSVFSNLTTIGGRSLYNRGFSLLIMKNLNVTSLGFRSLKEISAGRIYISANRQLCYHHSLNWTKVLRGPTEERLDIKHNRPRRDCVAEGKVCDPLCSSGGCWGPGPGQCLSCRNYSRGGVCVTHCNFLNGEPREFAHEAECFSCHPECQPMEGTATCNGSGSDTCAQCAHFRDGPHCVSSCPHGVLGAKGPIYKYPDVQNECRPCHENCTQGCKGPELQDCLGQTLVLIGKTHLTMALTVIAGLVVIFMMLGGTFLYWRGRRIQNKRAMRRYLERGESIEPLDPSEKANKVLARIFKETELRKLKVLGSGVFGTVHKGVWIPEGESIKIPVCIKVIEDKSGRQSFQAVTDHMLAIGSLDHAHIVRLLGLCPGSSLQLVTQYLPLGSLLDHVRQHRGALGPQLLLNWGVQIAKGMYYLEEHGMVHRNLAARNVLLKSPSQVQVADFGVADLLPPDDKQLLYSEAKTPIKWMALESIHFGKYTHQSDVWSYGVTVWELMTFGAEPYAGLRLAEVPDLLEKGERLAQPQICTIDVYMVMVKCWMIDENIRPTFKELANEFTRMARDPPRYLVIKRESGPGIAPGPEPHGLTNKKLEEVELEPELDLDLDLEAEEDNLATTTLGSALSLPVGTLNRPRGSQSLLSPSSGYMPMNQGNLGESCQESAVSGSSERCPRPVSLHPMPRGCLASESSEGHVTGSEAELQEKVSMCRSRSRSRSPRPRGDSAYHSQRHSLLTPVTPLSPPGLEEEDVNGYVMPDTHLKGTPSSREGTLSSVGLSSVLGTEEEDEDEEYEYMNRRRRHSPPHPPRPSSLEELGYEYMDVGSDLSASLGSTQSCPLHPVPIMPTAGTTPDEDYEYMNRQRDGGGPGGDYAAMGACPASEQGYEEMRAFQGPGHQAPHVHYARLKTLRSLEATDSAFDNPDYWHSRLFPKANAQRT
measurement.label: IC50

(Q) # get_value(readout= IC50, system= hERBB3 (Homo sapiens)) for `Cc1cn(CCN2CCN(c3ccccc3-c3cc(C#N)cc(C(=O)NCCCN4CCCC4)c3)CC2)c2ccccc12`
(A) > 20 µM

---

measurement.label: IC50

(Q) # get_value(readout= IC50, system= UniProt:P30291) for Cc1cn(CCN2CCN(c3ccccc3-c3cc(C#N)cc(C(=O)NCCCN4CCCC4)c3)CC2)c2ccccc12 [LLY-507]
Sequence (P30291 whole entry): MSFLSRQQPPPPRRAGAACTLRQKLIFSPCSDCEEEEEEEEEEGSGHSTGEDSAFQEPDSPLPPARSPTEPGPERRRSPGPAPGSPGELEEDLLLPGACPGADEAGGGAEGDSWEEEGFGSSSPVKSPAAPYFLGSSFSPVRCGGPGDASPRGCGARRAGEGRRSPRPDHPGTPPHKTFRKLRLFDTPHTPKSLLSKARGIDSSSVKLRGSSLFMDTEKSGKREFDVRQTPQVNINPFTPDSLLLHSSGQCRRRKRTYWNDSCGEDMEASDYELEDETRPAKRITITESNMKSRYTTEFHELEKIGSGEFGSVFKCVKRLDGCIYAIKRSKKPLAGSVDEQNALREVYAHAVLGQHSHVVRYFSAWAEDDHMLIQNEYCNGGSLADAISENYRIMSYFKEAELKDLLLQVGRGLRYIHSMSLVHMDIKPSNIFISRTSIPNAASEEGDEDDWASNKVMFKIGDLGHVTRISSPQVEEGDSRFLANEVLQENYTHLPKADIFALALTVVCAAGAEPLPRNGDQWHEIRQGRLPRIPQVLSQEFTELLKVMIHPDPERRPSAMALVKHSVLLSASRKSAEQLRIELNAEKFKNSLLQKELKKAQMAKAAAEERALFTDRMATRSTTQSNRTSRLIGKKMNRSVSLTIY
(A) > 20 µM

---

# measured.target: hFGFR1 (Homo sapiens)
# Sequence (P11362 22-822): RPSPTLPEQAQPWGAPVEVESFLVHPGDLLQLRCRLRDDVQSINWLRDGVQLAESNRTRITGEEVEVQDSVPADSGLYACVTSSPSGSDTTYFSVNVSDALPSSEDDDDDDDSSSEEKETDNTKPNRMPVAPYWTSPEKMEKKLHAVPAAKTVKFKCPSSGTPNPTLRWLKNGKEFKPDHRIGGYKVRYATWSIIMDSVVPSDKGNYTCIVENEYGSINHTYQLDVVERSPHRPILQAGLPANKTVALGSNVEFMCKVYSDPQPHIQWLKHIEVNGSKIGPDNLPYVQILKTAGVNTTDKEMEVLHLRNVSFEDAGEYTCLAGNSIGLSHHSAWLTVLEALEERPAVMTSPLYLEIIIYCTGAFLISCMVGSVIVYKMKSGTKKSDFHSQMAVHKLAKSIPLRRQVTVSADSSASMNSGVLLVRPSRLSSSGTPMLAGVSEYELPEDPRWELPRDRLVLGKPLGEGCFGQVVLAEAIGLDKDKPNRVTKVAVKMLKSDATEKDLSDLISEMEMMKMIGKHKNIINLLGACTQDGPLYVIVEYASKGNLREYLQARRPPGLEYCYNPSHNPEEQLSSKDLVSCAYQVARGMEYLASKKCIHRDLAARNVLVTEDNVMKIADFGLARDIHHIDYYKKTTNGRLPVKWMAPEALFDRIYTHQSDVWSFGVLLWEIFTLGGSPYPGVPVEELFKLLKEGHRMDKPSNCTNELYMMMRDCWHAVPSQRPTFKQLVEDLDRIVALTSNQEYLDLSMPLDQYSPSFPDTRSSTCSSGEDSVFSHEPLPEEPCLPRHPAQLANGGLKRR
measurement.label: IC50

(Q) Using the record for `Cc1cn(CCN2CCN(c3ccccc3-c3cc(C#N)cc(C(=O)NCCCN4CCCC4)c3)CC2)c2ccccc12` , report its IC50.
(A) > 20 µM

---

# measured.target: hDDR2 (Homo sapiens)
# Sequence (Q16832 22-855): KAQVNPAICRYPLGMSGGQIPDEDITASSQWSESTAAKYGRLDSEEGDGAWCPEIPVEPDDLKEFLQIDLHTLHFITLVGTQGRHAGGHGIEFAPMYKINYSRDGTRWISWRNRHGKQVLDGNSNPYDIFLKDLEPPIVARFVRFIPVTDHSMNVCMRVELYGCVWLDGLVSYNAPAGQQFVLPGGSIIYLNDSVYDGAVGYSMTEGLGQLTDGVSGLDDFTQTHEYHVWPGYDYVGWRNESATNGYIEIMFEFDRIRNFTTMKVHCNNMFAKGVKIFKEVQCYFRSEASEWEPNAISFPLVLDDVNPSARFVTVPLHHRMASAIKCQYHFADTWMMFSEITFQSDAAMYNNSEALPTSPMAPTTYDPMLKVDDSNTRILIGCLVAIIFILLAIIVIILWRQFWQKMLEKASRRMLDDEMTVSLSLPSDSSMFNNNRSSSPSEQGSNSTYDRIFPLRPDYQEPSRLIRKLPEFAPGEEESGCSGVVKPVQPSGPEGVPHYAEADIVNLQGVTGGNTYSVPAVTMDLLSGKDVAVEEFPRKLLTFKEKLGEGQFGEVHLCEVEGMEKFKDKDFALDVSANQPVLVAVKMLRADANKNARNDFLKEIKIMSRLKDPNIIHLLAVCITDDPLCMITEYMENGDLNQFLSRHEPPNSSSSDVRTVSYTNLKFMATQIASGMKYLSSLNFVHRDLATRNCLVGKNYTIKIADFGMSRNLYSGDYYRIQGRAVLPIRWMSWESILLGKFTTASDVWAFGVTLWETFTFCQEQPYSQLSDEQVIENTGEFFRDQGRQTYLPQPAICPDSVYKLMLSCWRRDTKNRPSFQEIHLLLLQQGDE
measurement.label: IC50

(Q) Using the record for `Cc1cn(CCN2CCN(c3ccccc3-c3cc(C#N)cc(C(=O)NCCCN4CCCC4)c3)CC2)c2ccccc12` , report its IC50.
(A) > 20 µM

---

# measured.target: UniProtKB Q15349
# Sequence (Q15349 415-672 limits assumed): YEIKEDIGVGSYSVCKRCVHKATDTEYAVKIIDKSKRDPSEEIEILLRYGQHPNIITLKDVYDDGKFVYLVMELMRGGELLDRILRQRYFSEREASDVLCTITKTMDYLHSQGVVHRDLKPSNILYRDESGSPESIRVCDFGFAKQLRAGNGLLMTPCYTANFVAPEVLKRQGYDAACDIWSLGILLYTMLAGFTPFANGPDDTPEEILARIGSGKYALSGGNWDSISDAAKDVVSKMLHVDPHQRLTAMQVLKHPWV
pIC50: −log10 of the molar value.
measurement.label: pIC50

(Q) Using the record for `Cc1cn(CCN2CCN(c3ccccc3-c3cc(C#N)cc(C(=O)NCCCN4CCCC4)c3)CC2)c2ccccc12` , report its pIC50.
(A) < 4.70

---

Target chain: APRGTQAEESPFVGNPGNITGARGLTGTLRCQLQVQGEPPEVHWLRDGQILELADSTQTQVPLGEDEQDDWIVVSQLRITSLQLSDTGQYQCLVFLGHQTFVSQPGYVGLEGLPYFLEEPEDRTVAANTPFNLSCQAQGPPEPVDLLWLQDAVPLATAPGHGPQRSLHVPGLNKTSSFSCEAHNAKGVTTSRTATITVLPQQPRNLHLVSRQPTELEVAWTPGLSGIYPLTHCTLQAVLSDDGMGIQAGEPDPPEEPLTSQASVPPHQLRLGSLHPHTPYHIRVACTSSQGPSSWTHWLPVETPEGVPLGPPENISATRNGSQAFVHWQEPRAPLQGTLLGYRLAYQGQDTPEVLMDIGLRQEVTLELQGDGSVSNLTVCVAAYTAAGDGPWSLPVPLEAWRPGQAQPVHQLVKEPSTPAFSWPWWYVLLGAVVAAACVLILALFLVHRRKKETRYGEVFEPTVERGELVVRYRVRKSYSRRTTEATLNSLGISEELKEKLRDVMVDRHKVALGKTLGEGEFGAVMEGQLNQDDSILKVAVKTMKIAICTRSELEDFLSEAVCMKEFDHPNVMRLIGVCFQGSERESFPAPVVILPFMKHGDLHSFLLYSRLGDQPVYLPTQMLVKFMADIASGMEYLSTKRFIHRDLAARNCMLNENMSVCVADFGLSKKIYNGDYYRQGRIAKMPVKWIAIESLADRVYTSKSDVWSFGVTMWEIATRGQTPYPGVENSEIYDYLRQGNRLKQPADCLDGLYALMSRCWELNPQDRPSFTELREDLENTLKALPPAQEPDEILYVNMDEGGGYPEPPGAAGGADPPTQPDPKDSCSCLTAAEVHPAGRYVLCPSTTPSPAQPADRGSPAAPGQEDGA
measurement.label: IC50

(Q) Using the record for `Cc1cn(CCN2CCN(c3ccccc3-c3cc(C#N)cc(C(=O)NCCCN4CCCC4)c3)CC2)c2ccccc12` , report its IC50.
(A) > 20 µM

Data origin: paper PMC4447944
